Test system: HOP-92
Experiment: NCI tumour cell line growth inhibition, 48 h
Activity calls are given as the source filed them. Cut-off read from the data, not from the text of the source: active = GI50 up to about 1.1 µM and inactive = higher.
Outcome codes: active, inactive

N#Cc1c(=O)c2ccccc2n2ccccc12 :: inactive
CC(C)(C)C(=O)O[C@@H]1COC2C(O)COC21 (some centres not stated) :: inactive
CC1=C(C(=O)O)N2C(=O)[C@@H](NC(=O)C(c3ccccc3)N3CSC(=S)N(C(C)C)C3)C2SC1 (some centres not stated) :: inactive
O=C1CC(c2cccc(F)c2)Nc2cc3c(cc21)OCO3 (configuration not stated) :: active
O=C1C2=C(SCCS2)C(=O)c2ccccc21 :: inactive
CN(C)P(=O)(Oc1ccc(CC(NC(=O)OCc2ccccc2)C(=O)OCc2ccccc2)cc1)N(C)C (configuration not stated) :: inactive
COC(=O)c1ccc2c(c1)CC1(C2)Cc2cc3c(c(C(=O)OC)c2C1)CCCC3 (configuration not stated) :: inactive

* * *

Tested on: XF498
Test: NCI tumour cell line growth inhibition, 48 h
Activity calls are given as the source filed them. No stated cut-off is given here; in the data, active = GI50 up to about 1.1 µM and inactive = higher.
Endpoint Label: GI50

Cc1cc2c(=O)cc(-c3ccncc3)oc2c(C(N)=O)c1C :: > 100 µM (inactive)
O=C(CCC(=O)Nc1ccc(Cl)cc1)CC(=O)c1ccc(F)cc1 :: > 100 µM (inactive)
C=CCN(N=O)C(=O)N(CCCCC(NC(C)=O)C(=O)NCc1ccccc1)Cc1ccccc1 (centres undefined) :: 36.1 µM (inactive)
CC1(C)COC(c2cccnc2/C=N/O)=N1 :: > 100 µM (inactive)

* * *

System: HOP-62
Assay: NCI tumour cell line growth inhibition, 48 h
Active and inactive are the calls of the source. Rule as the data show it: active = GI50 up to about 1.1 µM and inactive = higher.
Endpoint Label: GI50

[N-]=[N+]=CC(=O)OC1CCOCC1 :: > 100 µM (inactive)
S=c1oc(CCCCCCCCc2nn(CNc3ccccc3)c(=S)o2)nn1CNc1ccccc1 :: > 100 µM (inactive)
CSc1nc(SC)c2cnn(CC3CO3)c2n1 (stereo not drawn) :: 18.7 µM (inactive)
O=S(=O)(c1ccc(/N=N/O)nc1)c1ccc2ccccc2c1 :: > 100 µM (inactive)
CCOC(=O)C1=C(OC(OCC)C(CC)[Se]c2ccccc2)CCC1 (stereo not drawn) :: 78.5 µM (inactive)
CC(C)(C)c1cc(OCc2nn3c(Cc4ccccc4)nnc3s2)c(Cl)cc1OCc1nn2c(Cc3ccccc3)nnc2s1 :: 94.2 µM (inactive)
O=C(O)CCc1nn2c(nc1=O)sc1ccc3ccccc3c12 :: > 100 µM (inactive)
COC(=O)C1(C(=O)OC)CC(=O)c2c(OC(=O)c3cccc(OC)c3C#N)ccc(OC(=O)c3cccc(OC)c3C#N)c2C1 :: > 100 µM (inactive)
O=C1CC(c2cccc(F)c2)Nc2cc3c(cc21)OCO3 (stereo not drawn) :: 7.38 µM (inactive)
Cc1cc(N(CCC#N)CCC#N)ccc1/C=C1N=C(/C=C\c2ccccc2)N(NC(=O)CC(=O)Nc2ccccc2Cl)C\1=O :: > 100 µM (inactive)
Cc1ccc2nc(CC(=O)c3ccc4ccccc4c3)c(O)nc2c1 :: > 100 µM (inactive)
COC(=O)[C@H](CCSC)NC(=O)c1ccc(CNC(=O)/C=C/c2cccc(Oc3ccccc3)c2)cc1 :: > 100 µM (inactive)
NC(=S)N/N=C(\C(=O)Nc1ccc(Cl)c(Cl)c1)C1=NN(c2ccccc2)C(c2cccc([N+](=O)[O-])c2)CC1=O (stereo not drawn) :: 34.6 µM (inactive)
